Below, each entry is listed with its recorded CC50 at 24 h.
- Run description: in vitro
- Condition: human
Report as a plain number; the unit µM is understood.

Example cases with answers are listed next.
>>> readout_number("COc1cccc2[nH]cc(C(=O)O)c12")
244
>>> readout_number("COc1cc2c(cc1OC)C(C(C)C)N(S(N)(=O)=O)CC2 (stereo not shown)")
534
>>> readout_number("COc1ccc([C@H]2[C@@H](C(=O)O)c3ccccc3C(=O)N2Cc2ccc(Cl)cc2)cc1")
152

Indicate the recorded CC50 at 24 h value for this compound: O=C(O)CCC(=O)c1c[nH]c2ccccc12 671
